Below, each of the compounds is paired with its reported AC50 value.
target: human CYP1A2 (Homo sapiens, UniProt P05177); test: biochemical
Sequence (P05177 whole entry): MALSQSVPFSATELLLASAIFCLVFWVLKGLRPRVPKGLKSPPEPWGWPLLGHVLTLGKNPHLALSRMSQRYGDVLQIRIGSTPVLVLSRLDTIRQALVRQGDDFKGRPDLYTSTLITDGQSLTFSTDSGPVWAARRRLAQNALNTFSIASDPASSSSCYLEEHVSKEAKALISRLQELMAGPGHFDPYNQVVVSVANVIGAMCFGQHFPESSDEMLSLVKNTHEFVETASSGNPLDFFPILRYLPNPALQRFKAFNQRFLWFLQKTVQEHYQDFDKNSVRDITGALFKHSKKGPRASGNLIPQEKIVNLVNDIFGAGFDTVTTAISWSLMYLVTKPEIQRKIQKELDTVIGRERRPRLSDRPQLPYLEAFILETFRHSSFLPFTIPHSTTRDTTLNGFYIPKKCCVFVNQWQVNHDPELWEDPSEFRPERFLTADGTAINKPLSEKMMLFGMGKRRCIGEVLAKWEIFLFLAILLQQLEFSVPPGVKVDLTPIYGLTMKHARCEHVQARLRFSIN
Quick note: give the figure in µM, leave out the unit.

O=C1OC(OC(=O)c2cccnc2Nc2cccc(C(F)(F)F)c2)c2ccccc21 (centres unmarked) [Talniflumate] | 10

Lookup result for O=C(c1ccccc1)c1ccc(Cl)cc1 ; measured AC50: 3.84

// AC50 lookup, compound = CCCOC(=O)c1ccc(C(=O)OCCC)nc1 [Dipropyl 2,5-pyridinedicarboxylate] , result: 11.3

Field AC50 (entry Oc1ccc(-c2ccc(O)cc2)cc1 ) reads 32.1

###

target: human CYP2D6 (Homo sapiens, UniProt P10635); settings: human
Sequence (P10635 whole entry): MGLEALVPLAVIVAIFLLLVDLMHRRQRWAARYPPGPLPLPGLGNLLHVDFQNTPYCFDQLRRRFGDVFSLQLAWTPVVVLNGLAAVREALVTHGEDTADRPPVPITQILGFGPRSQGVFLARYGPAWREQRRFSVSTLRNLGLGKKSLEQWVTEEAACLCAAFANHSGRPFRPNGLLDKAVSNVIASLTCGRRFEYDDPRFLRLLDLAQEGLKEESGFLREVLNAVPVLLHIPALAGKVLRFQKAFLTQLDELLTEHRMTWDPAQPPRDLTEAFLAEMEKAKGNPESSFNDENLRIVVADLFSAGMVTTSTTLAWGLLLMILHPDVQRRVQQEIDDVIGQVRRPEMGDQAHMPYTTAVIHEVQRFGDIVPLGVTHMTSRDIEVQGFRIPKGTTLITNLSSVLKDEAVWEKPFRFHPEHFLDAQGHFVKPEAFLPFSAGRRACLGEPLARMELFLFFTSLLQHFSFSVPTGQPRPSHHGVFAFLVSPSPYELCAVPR
Where a name gives a salt, the structure may show the parent alone.
property: IC50 (nM)
The reply should be a number in nM, with the unit left off.

Per the records, this molecule ( C[C@@H](NCCCc1cccc(C(F)(F)F)c1)c1cccc2ccccc12 [Cinacalcet hydrochloride] ) has IC50 equal to 50
